test system: BT-549 breast; assay: NCI tumour cell line growth inhibition, 48 h
Recorded measurements of TGI, one per entry

[
  {
    "compound": "Cc1cccc2nc3cccc(C(=O)NCCC[N+](C)(CCCNC(=O)c4cccc5nc6cccc(C)c6nc45)Cc4c([N+](=O)[O-])ncn4C)c3nc12",
    "TGI": "> 1100 µM"
  },
  {
    "compound": "COc1ccc(-c2nsc3c2NC(=O)CC3c2ccc3c(c2)OCO3)cc1 (centres undefined)",
    "TGI": "> 100 µM"
  },
  {
    "compound": "COc1ccc(C(O)c2cc3c(N)c(C(=O)Nc4cccc(Cl)c4C)sc3nc2C)cc1 (centres undefined)",
    "TGI": "1.77 µM"
  },
  {
    "compound": "O=C(NNc1cn[nH]c(=O)c1Cl)/C(=C/c1ccc2c(c1)OCO2)NC(=O)c1ccccc1",
    "TGI": "49.1 µM"
  },
  {
    "compound": "O=C1c2ccccc2-c2nccc3cc(Cl)nc1c23",
    "TGI": "> 100 µM"
  },
  {
    "compound": "C=C1C(=O)O[C@H]2[C@H]1CC/C(CNS(=O)(=O)c1ccc3ccccc3c1)=C\\CC[C@@]1(C)O[C@@H]21",
    "TGI": "4.02 µM"
  },
  {
    "compound": "NC(c1ccccc1)(C(F)(F)F)P1(=O)OC(=O)c2ccccc2O1 (centres undefined)",
    "TGI": "> 100 µM"
  },
  {
    "compound": "O=C(c1ccccc1)c1c(C(F)(F)F)n([O-])c2cc(Cl)c(Cl)cc2[n+]1=O",
    "TGI": "4.8 µM"
  }
]

Assign TGI to the following record: `Nc1ccc(-c2nc3ccccc3[nH]2)c(O)c1` > 100 µM

----------
Below is a list of entries, each paired with its recorded TGI value.
test system: PC-3 prostate; assay: NCI tumour cell line growth inhibition, 48 h

[
  {
    "molecule": "CCN(CC)CCOc1ccc(Nc2ncc3cc(-c4c(Cl)cccc4Cl)c(=O)n(CCOC)c3n2)cc1",
    "TGI": "18.6 µM"
  },
  {
    "molecule": "O=C1C=C2CO[C@H]3OC[C@H](O)[C@@H]1[C@@H]23",
    "TGI": "> 100 µM"
  },
  {
    "molecule": "Nc1ccc(N=Nc2ccccc2)c(N)n1",
    "TGI": "> 100 µM"
  },
  {
    "molecule": "CCc1nn(S(=O)(=O)c2ccc(C)cc2)c2c1CS(=O)(=O)CC2",
    "TGI": "> 100 µM"
  },
  {
    "molecule": "Cc1cn(CC2=NCCCN2)c(=O)[nH]c1=O",
    "TGI": "> 100 µM"
  }
]

Please find the next molecule below.
Give TGI for CCCCCCCCCCCCCCCC(=O)OCC1OC(n2cnc3c(=S)nc(N)[nH]c32)C(OC(=O)CCCCCCCCCCCCCCC)C1OC(=O)CCCCCCCCCCCCCCC (centres undefined) > 50 µM

----------
Item-by-item account of TGI
system: LOX IMVI melanoma; assay: NCI tumour cell line growth inhibition, 48 h

Examples with answers:
[
  {
    "compound": "CC(=O)NC1=C(C)C(=O)c2c(nc3n2CCC3O)C1=O (stereo unspecified)",
    "target or system": "LOX IMVI melanoma",
    "result": "> 100 µM"
  },
  {
    "compound": "O=C(/C=C/c1ccc(-c2ccccc2)cc1)NCc1ccc(C(=O)NCCc2c[nH]c3ccccc23)cc1",
    "target or system": "LOX IMVI melanoma",
    "result": "> 100 µM"
  },
  {
    "compound": "O=C1CCC2CCc3cccc4oc1c2c34 (stereo unspecified)",
    "target or system": "LOX IMVI melanoma",
    "result": "> 100 µM"
  },
  {
    "compound": "O=c1[nH]c2ccccc2nc1/C=C(\\O)C(F)F",
    "target or system": "LOX IMVI melanoma",
    "result": "> 100 µM"
  },
  {
    "compound": "CC(=O)OCc1cc(=O)n(C)c2c3c4c(cc12)c(C)cc(=O)n4CO3",
    "target or system": "LOX IMVI melanoma",
    "result": "8.6 µM"
  },
  {
    "compound": "C1#Cc2ccccc2OCCOc2ccccc2C#Cc2ccccc2OCCOc2ccccc21",
    "target or system": "LOX IMVI melanoma",
    "result": "33.4 µM"
  }
]

Give the reported value of TGI for this record: `CN1C/C(=C\c2ccc(Cl)cc2)C(=O)/C(=C/c2ccc(Cl)cc2)C1` 0.612 µM

Given the compound `CCNC(=O)/C=C/CCC#Cc1ccc(-c2ccc(-c3cccs3)s2)s1` , write its reported TGI. > 100 µM

Give the reported TGI for this compound. `O=C(CN1CCCCC1)c1ccc2c(c1)Sc1ccccc1O2` 40.3 µM

Look up TGI of `O=C(Nc1ncc(Cc2ccccc2)s1)c1ccc2c(c1)OCCCO2` and report it. > 100 µM

Give TGI for the following compound: `Cn1c(=O)c(Oc2cccc(F)c2)cc2cnc(NC3CCOCC3)nc21` > 25 µM
